target: soluble IGF-1R (recombinant human IGF-1R extracellular domain, R&D Systems Cat. # 391-GR/CF) (human), P08069; assay: phage ELISA
No end group written: not given here.
Measurement type: ratio over background

Examples with their reported ratio over background follow.
CCLLCRFQQNFYDWFVCQGISRLRPL (modifications not checked) [H2CA-2-B4-IGFR]	4.1
VVTPVNFYRALEALVRGXRLG (not fully specified; printed as VVTPVNFYRALEALVRG.RLG; X: residue not identified in the source) [20E2B-2-B11-IGFR]	10.6

a. CMMXDGFYAGLGCLLTAGEGR (not fully specified; printed as CMM.DGFYAGLGCLLTAGEGR; X: residue not identified in the source; cysteine pairing not given here) [20E2B-3-C11-IGFR]
b. RCGRWXAEMGAGDDPFYHKLSELVCG (not fully specified; X: residue not identified in the source; cysteine pairing not given here) [B6Hα-2-C4-IR]
Which shows the larger ratio over background value: a or b ? In your reply, give the label of the chosen option.
a
